Tested on: HEK293
Experiment: Cytotoxic Profiling of Annotated Libraries Using Quantitative High-Throughput Screening (AID 1296008); note: % is set by controls: 0 for no effect and ±100 for the full control effect; nearly all actives have a fitted effect of over 60% in size
Details: Five cell lines viability, CellTiter-Glo ATP luminescence, 48-72 h; hits give low values
Results filed as inconclusive are left out.

[
  {
    "compound": "CC(=O)O[C@@H]1C(=O)C(C)=C(CCC(C)CC(=O)O)[C@@]2(C)CCCC(C)(C)C12 (some centres undefined)",
    "measuredOn": "HEK293",
    "max response (%)": 0.534
  },
  {
    "compound": "CC(C)(O)C1OC1C1=CC(=O)C2(C)OC2C1O (centres undefined)",
    "measuredOn": "HEK293",
    "max response (%)": -1.71
  },
  {
    "compound": "CC1(C)CC2C3=CCC4[C@@]5(C)CC[C@H](OC6OCC(O)C(OC7OC(CO)C(O)C(O)C7O)C6O)C(C)(C)C5CC[C@@]4(C)[C@]3(C)C[C@H](O)[C@@]2(CO)[C@H](OC(=O)c2ccccc2)C1 (some centres undefined)",
    "measuredOn": "HEK293",
    "max response (%)": -22
  },
  {
    "compound": "COc1cc(/C=C/C(=O)O[C@@H]2C[C@@](O)(C(=O)O)C[C@@H](O)[C@@H]2O)ccc1O",
    "measuredOn": "HEK293",
    "max response (%)": 0.393
  }
]

---

Test system: CRL-7250
Assay: Cytotoxic Profiling of Annotated Libraries Using Quantitative High-Throughput Screening (AID 1296008); note: % is set by controls: 0 for no effect and ±100 for the full control effect; nearly all actives have a fitted effect of over 60% in size
Settings: Five cell lines viability, CellTiter-Glo ATP luminescence, 48-72 h; hits give low values
Records with an inconclusive call do not appear. Where a SMILES comes first, the peptide text is derived from it. [ ]: non-standard residue; d: D form. ξ: configuration not given here. ξTyr(βOH) = NC(C(=O)O)C(O)c1ccc(O)cc1
Listing of recorded max response by entry.
valueKind: max response (%)

[
  {
    "compound": "O=C(O)C1(c2ccc(-c3ccc(Cl)c(Cl)c3)c(F)c2)CC1",
    "measureUnit": "%",
    "numericResult": 2.78
  },
  {
    "compound": "C=C[C@]1(C)C[C@@H](OC(=O)CSC2C[C@H]3CC[C@@H](C2)N3C)[C@]2(C)[C@H](C)CC[C@]3(CCC(=O)[C@H]32)[C@@H](C)[C@@H]1O (stereo partly drawn)",
    "measureUnit": "%",
    "numericResult": -0.484
  },
  {
    "compound": "C[C@@H]1O[C@@H](OC(=O)Cc2ccccc2)[C@H](O)[C@H](O)[C@H]1O",
    "measureUnit": "%",
    "numericResult": 2.73
  },
  {
    "compound": "CC(C)C1NC(=O)CNC(=O)C2CCCN2C(=O)C(Cc2c[nH]c3ccccc23)NC(=O)CNC(=O)C(C(O)c2ccc(O)cc2)NC(=O)CNC1=O (stereo not drawn) (cyclo(G[ξTyr(βOH)]GWPGV); configuration not given here)",
    "measureUnit": "%",
    "numericResult": -8.12
  },
  {
    "compound": "O=C(O)c1ccnc(-c2cc(C(=O)NCCc3ccccc3)ccn2)c1",
    "measureUnit": "%",
    "numericResult": 0.77
  },
  {
    "compound": "C[C@H]1[C@H](C)CC[C@]2(C(=O)OC3OC(CO)C(O)C(O)C3O)CC[C@]3(C(=O)O)C(=CCC4[C@@]5(C)CC[C@H](O[C@@H]6O[C@@H](C)[C@H](OC7OC(CO)C(O)C(O)C7O)[C@@H](O)[C@H]6O)C(C)(C)C5CC[C@]43C)[C@H]12 (stereo partly drawn)",
    "measureUnit": "%",
    "numericResult": -1.78
  },
  {
    "compound": "COc1cc(/C=C/CO[C@@H]2O[C@H](CO)[C@@H](O)[C@H](O)[C@H]2O)cc(OC)c1O[C@@H]1O[C@H](CO)[C@@H](O)[C@H](O)[C@H]1O",
    "measureUnit": "%",
    "numericResult": -7.94
  },
  {
    "compound": "C/C=C(\\C)C(=O)OCC1OC(OCC2OC(OC3(CO)OC(CO)C(O)C3O)C(O)C(O)C2O)C(O)C(O)C1O (stereo not drawn)",
    "measureUnit": "%",
    "numericResult": -0.798
  },
  {
    "compound": "O=C(/C=C/c1ccc(O)cc1)O[C@@H]1C[C@@](O)(C(=O)O)C[C@@H](O)[C@@H]1O",
    "measureUnit": "%",
    "numericResult": -19.8
  },
  {
    "compound": "COc1cc(O)cc2c1C(=O)OC(C)CCCCCCC2 (stereo not drawn)",
    "measureUnit": "%",
    "numericResult": 0.54
  },
  {
    "compound": "CC(C)=CCc1c(O)cc2oc3cc(C)cc(O)c3c2c1C",
    "measureUnit": "%",
    "numericResult": 2.07
  },
  {
    "compound": "C[C@@H]1O[C@@H](O[C@H]2[C@@H]3C=CO[C@@H](O[C@@H]4O[C@H](CO)[C@@H](O)[C@H](O)[C@H]4O)[C@@H]3[C@@]3(CO)O[C@@H]23)[C@H](OC(=O)/C=C/c2ccc(O)cc2)[C@H](O)[C@H]1O",
    "measureUnit": "%",
    "numericResult": -20.4
  },
  {
    "compound": "CC(C)=CC[C@H]1O[C@]2(O)C([C@H]3CCC4[C@@]5(C)CC[C@H](O[C@@H]6O[C@H](CO)[C@H](O)[C@H](O[C@@H]7O[C@H](CO)[C@@H](O)[C@H](O)[C@H]7O)[C@H]6O[C@@H]6O[C@@H](C)[C@H](O)[C@@H](O)[C@H]6O)C(C)(C)C5CC[C@@]4(C)[C@]3(C)[C@H]2O)[C@@]1(C)O (stereo partly drawn)",
    "measureUnit": "%",
    "numericResult": 0.206
  }
]
